Values from PubChem BioAssay (NCI)

Recorded log10 of TGI, one value per entry.
System: COLO 205 colon
protocol: NCI tumour cell line growth inhibition, 48 h
Friendly reminder: values = log10 of TGI, unit µM.

For orientation, consider the following solved cases.
[
  {
    "compound": "O=[N+]([O-])c1cc(/C=N/NS(=O)(=O)c2ccc(F)cc2)c(O)c([N+](=O)[O-])c1",
    "log10 of TGI": 1.54
  },
  {
    "compound": "O=C(NO)c1cnc(N2CCN(S(=O)(=O)c3ccc4ccccc4c3)CC2)nc1",
    "log10 of TGI": -0.53
  },
  {
    "compound": "CN(NC(=O)CC(=O)NN(C)C(=S)c1ccc(Cl)cc1)C(=S)c1ccc(Cl)cc1",
    "log10 of TGI": 1.69
  }
]

Data request: Look up log10 of TGI for this compound: C=C1C(=O)OC2/C=C(\C)CC(O)/C=C(/CO)CC(OC(=O)/C(C)=C/C)C12 (centres undefined)
Data returned: 1.99

Data request: // lookup log10 of TGI for O=c1cc(-c2nc3ccccc3[nH]2)[nH]c2nc(-c3nc4ccccc4[nH]3)cc(-c3ccc(Cl)cc3)c12
Data returned: 1.39

Data request: So what does the record say about log10 of TGI for CN(C)CCOc1nc2ccccc2c2c1-c1ccc(Cl)cc1C2=O ?
Data returned: 0.24

Data request: Give the measured log10 of TGI of CC(C)NC(=O)O/N=C1\CCC2[C@@H]3CC=C4C[C@@H](OC(=O)NC(C)C)CC[C@]4(C)C3CC[C@]12C (some centres undefined) .
Data returned: 0.11

Data request: Could you share which log10 of TGI value was measured for CCOC(=O)CCc1c(C)[nH]c2c(C)c3c([nH]c4ccc(Cl)cc43)c(C)c2c1=O ?
Data returned: 1.95

Data request: What does the record list as log10 of TGI for COc1cc(NCc2ccc3n2-c2ccccc2OC3)cc(OC)c1OC ?
Data returned: 1.41
